Test system: A-427
protocol.summary: relative viability (nuclei count vs DMSO), 5 days (fraction); higher = more cells survive
experimental.parameters: first compound 0.253 µM
measured.parameter: relative viability
Write no unit; give the number alone.

See these solved cases before continuing.
COc1nc(C)cnc1NS(=O)(=O)c1cccnc1-c1ccc(-c2nnco2)cc1 [Zibotentan] + C[C@@H](Oc1cc(-c2cnn(C3CCNCC3)c2)cnc1N)c1c(Cl)ccc(F)c1Cl [Crizotinib] (partner 1 µM) = 0.91
COc1nc(C)cnc1NS(=O)(=O)c1cccnc1-c1ccc(-c2nnco2)cc1 [Zibotentan] + O=C(c1cc(Cc2n[nH]c(=O)c3ccccc23)ccc1F)N1CCN(C(=O)C2CC2)CC1 [Olaparib] (partner 8 µM) = 0.704
COc1nc(C)cnc1NS(=O)(=O)c1cccnc1-c1ccc(-c2nnco2)cc1 [Zibotentan] + CC1(C)CCC(c2ccc(Cl)cc2)=C(CN2CCN(c3ccc(C(=O)NS(=O)(=O)c4ccc(N[C@H](CCN5CCOCC5)CSc5ccccc5)c(S(=O)(=O)C(F)(F)F)c4)cc3)CC2)C1 [Navitoclax] (partner 0.5 µM) = 0.978

Next item in the queue.
According to the records, this compound COc1nc(C)cnc1NS(=O)(=O)c1cccnc1-c1ccc(-c2nnco2)cc1 [Zibotentan] + CC(C)C[C@H](NC(=O)[C@H](Cc1ccccc1)NC(=O)c1cnccn1)B(O)O [Bortezomib] (partner 0.002 µM) displays relative viability of 1.06

====

Recorded relative viability, one value per entry.
Test system: NCI-H441
protocol.summary: relative viability (nuclei count vs DMSO), 5 days (fraction); higher = more cells survive
experimental.parameters: first compound 0.2 µM
Write no unit; give the number alone.

relative viability of COCC1(CO)C(=O)C2CCN1CC2 (stereo not given) [PRIMA-1MET] + Nc1ncn([C@H]2C[C@H](O)[C@@H](CO)O2)c(=O)n1 [Decitabine] (partner 2 µM) , assay on NCI-H441, is 0.232

relative viability of COCC1(CO)C(=O)C2CCN1CC2 (stereo not given) [PRIMA-1MET] + Cc1nc(Nc2ncc(C(=O)Nc3c(C)cccc3Cl)s2)cc(N2CCN(CCO)CC2)n1 [Dasatinib] (partner 0.075 µM) , assay on NCI-H441, is 0.461

relative viability of COCC1(CO)C(=O)C2CCN1CC2 (stereo not given) [PRIMA-1MET] + O=C(CCCCCCC(=O)Nc1ccccc1)NO [Vorinostat] (partner 1 µM) , assay on NCI-H441, is 0.689

relative viability of COCC1(CO)C(=O)C2CCN1CC2 (stereo not given) [PRIMA-1MET] + CCNC(=O)c1noc(-c2cc(C(C)C)c(O)cc2O)c1-c1ccc(CN2CCOCC2)cc1 [Luminespib] (partner 0.01 µM) , assay on NCI-H441, is 0.437

relative viability of COCC1(CO)C(=O)C2CCN1CC2 (stereo not given) [PRIMA-1MET] + CC1(C)CCC(c2ccc(Cl)cc2)=C(CN2CCN(c3ccc(C(=O)NS(=O)(=O)c4ccc(N[C@H](CCN5CCOCC5)CSc5ccccc5)c(S(=O)(=O)C(F)(F)F)c4)cc3)CC2)C1 [Navitoclax] (partner 0.5 µM) , assay on NCI-H441, is 0.561

====

System: H3255
protocol.summary: relative viability (nuclei count vs DMSO), 5 days (fraction); higher = more cells survive
experimental.parameters: first compound 0.3162 µM
Sorting guide: entries reporting relative viability beneath 0.6 go in the satisfied pile, the rest go in the not satisfied pile.

Completed entries (count: 5):
O=c1cc(N2CCOCC2)oc2c(-c3cccc4c3sc3ccccc34)cccc12 + COc1cc2c(Oc3ccc(NC(=O)C4(C(=O)Nc5ccc(F)cc5)CC4)cc3F)ccnc2cc1OCCCN1CCOCC1 [Foretinib] (partner 0.25 µM) = not satisfied
O=c1cc(N2CCOCC2)oc2c(-c3cccc4c3sc3ccccc34)cccc12 + CS(=O)(=O)N1CCN(Cc2cc3nc(-c4cccc5[nH]ncc45)nc(N4CCOCC4)c3s2)CC1 [Pictilisib] (partner 1 µM) = satisfied
CCN(CC)CCCCNc1ncc2cc(-c3cc(OC)cc(OC)c3)c(NC(=O)NC(C)(C)C)nc2n1 + O=C(CCCCCCC(=O)Nc1ccccc1)NO [Vorinostat] (partner 1 µM) = not satisfied
CCN(CC)CCCCNc1ncc2cc(-c3cc(OC)cc(OC)c3)c(NC(=O)NC(C)(C)C)nc2n1 + CC(=O)c1c(C)c2cnc(Nc3ccc(N4CCNCC4)cn3)nc2n(C2CCCC2)c1=O [Palbociclib] (partner 0.5 µM) = satisfied
CCN(CC)CCCCNc1ncc2cc(-c3cc(OC)cc(OC)c3)c(NC(=O)NC(C)(C)C)nc2n1 + Nc1ncn([C@H]2C[C@H](O)[C@@H](CO)O2)c(=O)n1 [Decitabine] (partner 2 µM) = not satisfied

(Q) Is the reported relative viability for CCN(CC)CCCCNc1ncc2cc(-c3cc(OC)cc(OC)c3)c(NC(=O)NC(C)(C)C)nc2n1 + O=C(c1cc(Cc2n[nH]c(=O)c3ccccc23)ccc1F)N1CCN(C(=O)C2CC2)CC1 [Olaparib] (partner 8 µM) strictly below 0.6?
(A) satisfied

====

Tested on: NCI-H358
protocol.summary: relative viability (nuclei count vs DMSO), 5 days (fraction); higher = more cells survive
experimental.parameters: first compound 0.3162 µM
Sorting guide: entries reporting relative viability beneath 0.5 go in the Condition met pile, the rest go in the Condition not met pile.

Completed entries (count: 3):
CCN(CC)CCCCNc1ncc2cc(-c3cc(OC)cc(OC)c3)c(NC(=O)NC(C)(C)C)nc2n1 + CS(=O)(=O)N1CCN(Cc2cc3nc(-c4cccc5[nH]ncc45)nc(N4CCOCC4)c3s2)CC1 [Pictilisib] (partner 1 µM) = Condition met
O=c1cc(N2CCOCC2)oc2c(-c3cccc4c3sc3ccccc34)cccc12 + CC(=O)Nc1cccc(-n2c(=O)n(C3CC3)c(=O)c3c(Nc4ccc(I)cc4F)n(C)c(=O)c(C)c32)c1 [Trametinib] (partner 0.02 µM) = Condition met
CCN(CC)CCCCNc1ncc2cc(-c3cc(OC)cc(OC)c3)c(NC(=O)NC(C)(C)C)nc2n1 + CC(=O)Nc1cccc(-n2c(=O)n(C3CC3)c(=O)c3c(Nc4ccc(I)cc4F)n(C)c(=O)c(C)c32)c1 [Trametinib] (partner 0.02 µM) = Condition met

Turning to the following molecule.
(Q) Is the reported relative viability for CCN(CC)CCCCNc1ncc2cc(-c3cc(OC)cc(OC)c3)c(NC(=O)NC(C)(C)C)nc2n1 + C[C@]1(O)C[C@@H](c2nc(-c3ccc4ccc(-c5ccccc5)nc4c3)c3c(N)nccn32)C1 [Linsitinib] (partner 1 µM) strictly below 0.5?
(A) Condition not met

====

System: BEN
protocol.summary: relative viability (nuclei count vs DMSO), 5 days (fraction); higher = more cells survive
experimental.parameters: first compound 1 µM
Sorting guide: entries reporting relative viability beneath 0.5 go in the yes (1) pile, the rest go in the no (0) pile.

CCN(CC)CCCCNc1ncc2cc(-c3cc(OC)cc(OC)c3)c(NC(=O)NC(C)(C)C)nc2n1 + COc1cc2c(Oc3ccc(NC(=O)C4(C(=O)Nc5ccc(F)cc5)CC4)cc3F)ccnc2cc1OCCCN1CCOCC1 [Foretinib] (partner 0.25 µM) = yes (1)
O=c1cc(N2CCOCC2)oc2c(-c3cccc4c3sc3ccccc34)cccc12 + CS(=O)(=O)CCNCc1ccc(-c2ccc3ncnc(Nc4ccc(OCc5cccc(F)c5)c(Cl)c4)c3c2)o1 [Lapatinib] (partner 2 µM) = no (0)
O=c1cc(N2CCOCC2)oc2c(-c3cccc4c3sc3ccccc34)cccc12 + Cc1cc(Nc2cc(N3CCN(C)CC3)nc(Sc3ccc(NC(=O)C4CC4)cc3)n2)n[nH]1 [Tozasertib] (partner 0.1 µM) = no (0)
O=c1cc(N2CCOCC2)oc2c(-c3cccc4c3sc3ccccc34)cccc12 + C[C@]1(O)C[C@@H](c2nc(-c3ccc4ccc(-c5ccccc5)nc4c3)c3c(N)nccn32)C1 [Linsitinib] (partner 1 µM) = no (0)
CCN(CC)CCCCNc1ncc2cc(-c3cc(OC)cc(OC)c3)c(NC(=O)NC(C)(C)C)nc2n1 + COc1cccc2cc(-c3nc([C@H]4CC[C@H](C(=O)O)CC4)n4ncnc(N)c34)[nH]c12 [OSI-027] (partner 0.5 µM) = yes (1)
CCN(CC)CCCCNc1ncc2cc(-c3cc(OC)cc(OC)c3)c(NC(=O)NC(C)(C)C)nc2n1 + Cc1nc(Nc2ncc(C(=O)Nc3c(C)cccc3Cl)s2)cc(N2CCN(CCO)CC2)n1 [Dasatinib] (partner 0.075 µM) = yes (1)

(Q) Is the reported relative viability for CCN(CC)CCCCNc1ncc2cc(-c3cc(OC)cc(OC)c3)c(NC(=O)NC(C)(C)C)nc2n1 + CC(=O)Nc1cccc(-n2c(=O)n(C3CC3)c(=O)c3c(Nc4ccc(I)cc4F)n(C)c(=O)c(C)c32)c1 [Trametinib] (partner 0.02 µM) strictly below 0.5?
(A) no (0)

(Q) Is the reported relative viability for CCN(CC)CCCCNc1ncc2cc(-c3cc(OC)cc(OC)c3)c(NC(=O)NC(C)(C)C)nc2n1 + CC(=O)c1c(C)c2cnc(Nc3ccc(N4CCNCC4)cn3)nc2n(C2CCCC2)c1=O [Palbociclib] (partner 0.5 µM) strictly below 0.5?
(A) yes (1)
